Below is a list of entries, each paired with its recorded melting point value.

1. CCc1nc2c(cnn2CC)c(NC2CCOCC2)c1CNC(=O)c1cccc(C(=O)NCc2cc(Cl)cc(-c3cccc(CN4CCCNCC4)c3)c2)c1 [Example 430]
121 to 124 °C
2. CCc1nc2c(cnn2CC)c(NC2CCOCC2)c1CNC(=O)c1cc(C)cc(C(=O)NCc2cccc(-c3cccc(CC4CCN(C)CC4)c3)c2)c1 [Example 425]
119 to 121 °C
3. CCc1nc2c(cnn2CC)c(NC2CCOCC2)c1CNC(=O)c1cccc(C(=O)NCc2cc(Cl)cc(-c3cccc(CN4CCCN(C)CC4)c3)c2)c1 [Example 428]
111 to 113 °C
4. CCc1nc2c(cnn2CC)c(NC2CCOCC2)c1CNC(=O)c1cccc(C(=O)NCc2ccc(OC)c(-c3cccc(CN4C[C@@H]5C[C@H]4CN5)c3)c2)c1 [Example 194]
129 to 131 °C
5. CCc1nc2c(cnn2CC)c(NC2CCOCC2)c1CNC(=O)c1cccc(C(=O)NCc2ccc(C)c(-c3cccc(CN4CCCN(C)CC4)c3)c2)c1 [Example 216]
107 to 109 °C
6. CCc1nc2c(cnn2CC)c(NC2CCOCC2)c1CNC(=O)c1cc(C)cc(C(=O)NCc2ccc(Cl)c(Br)c2)c1
212 to 214 °C
7. CCc1nc2c(cnn2CC)c(NC2CCOCC2)c1CNC(=O)c1cccc(C(=O)NCc2ccc(F)c(-c3cccc(CN4C[C@H](C)NC[C@H]4C)c3)c2)c1 [Example 198]
187 to 190 °C (dec.)
8. CCc1nc2c(cnn2CC)c(NC2CCOCC2)c1CNC(=O)c1cccc(C(=O)NCc2ccc(Cl)c(-c3cccc(CN4CCNCC4)c3)c2)c1 [Example 222]
127 to 130 °C

// query melting point value for entry CCc1nc2c(cnn2CC)c(NC2CCOCC2)c1CNC(=O)c1cc(C)cc(C(=O)NCc2ccc(OC)c(-c3cccc(C=O)c3)c2)c1
117 to 119 °C

// query melting point value for entry CCc1nc2c(cnn2CC)c(NC2CCOCC2)c1CNC(=O)c1cccc(C(=O)NCc2cc(Cl)cc(-c3cccc(CN4CCN[C@@H](C)C4)c3)c2)c1 [Example 224]
119 to 121 °C

// query melting point value for entry CCc1nc2c(cnn2CC)c(NC2CCOCC2)c1CNC(=O)c1cccc(C(=O)NCc2cc(Cl)cc(-c3cccc(CN4CCN(C)CC4)c3)c2)c1 [Example 422]
116 to 118 °C

// query melting point value for entry CCc1nc2c(cnn2CC)c(NC2CCOCC2)c1CNC(=O)c1cccc(C(=O)NCc2cc(Cl)cc(-c3cccc(CN4CCNCC4)c3)c2)c1 [Example 424]
119 to 122 °C

// query melting point value for entry CCc1nc2c(cnn2CC)c(NC2CCOCC2)c1CNC(=O)c1cc(C)cc(C(=O)NCc2ccc(C)c(Br)c2)c1
117 to 119 °C

// query melting point value for entry CCc1nc2c(cnn2CC)c(NC2CCOCC2)c1CNC(=O)c1cccc(C(=O)NCc2ccc(F)c(-c3cccc(CN4CCN(C)CC4)c3)c2)c1 [Example 200]
169 to 173 °C

###

result_type: melting point

# annotated cases, reported melting point shown
1) CCc1nc2c(cnn2CC)c(NC2CCOCC2)c1CNC(=O)c1cccc(C(=O)NCc2ccc(OC)c(-c3cccc(CN4CCCNCC4)c3)c2)c1
143 to 147 °C
2) O=C(O)c1cccc(C(=O)NCc2ccc(F)c(-c3cccc(CO)c3)c2)c1
169 to 171 °C
3) CCc1nc2c(cnn2CC)c(NC2CCOCC2)c1CNC(=O)c1cccc(C(=O)NCc2ccc(F)c(-c3cccc(CN4CCN(C(C)C)CC4)c3)c2)c1
165 to 169 °C
4) CCc1nc2c(cnn2CC)c(NC2CCOCC2)c1CNC(=O)c1cccc(C(=O)NCc2ccc(Cl)c(-c3cccc(CN4CCCNCC4)c3)c2)c1
116 to 119 °C
5) CCc1nc2c(cnn2CC)c(NC2CCOCC2)c1CNC(=O)c1cccc(C(=O)NCc2ccc(Cl)c(-c3cccc(CN4CCN(C)CC4)c3)c2)c1
112 to 114 °C

// query melting point value for entry CCc1nc2c(cnn2CC)c(NC2CCOCC2)c1CNC(=O)c1cc(C)cc(C(=O)NCc2cccc(-c3cccc(CC4CCNCC4)c3)c2)c1
130 to 132 °C

// query melting point value for entry CCc1nc2c(cnn2CC)c(NC2CCOCC2)c1CNC(=O)c1cccc(C(=O)NCc2ccc(C)c(-c3cccc(CN4C[C@@H](C)N[C@@H](C)C4)c3)c2)c1
109 to 112 °C

// query melting point value for entry CCc1nc2c(cnn2CC)c(NC2CCOCC2)c1CNC(=O)c1cccc(C(=O)NCc2ccc(OC)c(-c3cccc(CN4C[C@@H](C)N[C@@H](C)C4)c3)c2)c1
127 to 129 °C
